Parameter pEC50: see the listing below.
# assayedSystem: TRAP1 enzyme (Homo sapiens, UniProt Q12931)
# Construct: 150 nM Trap1 enzyme was incubated with various concentrations of the test compound
# assayMethodText: ADP Glo assay of TRAP1 ATPase activity
# Type: biochemical
# reportedConditions: concentration for half maximal activation; read-out: ADP GLO DRC: GeoMean EC50
pEC50: −log10 of the molar value.

{"columns": ["structureNotation", "pEC50"],
 "data": [
  ["COc1ncc(NC(=O)c2ccccc2C(=O)c2ccccc2)cc1S(=O)(=O)Nc1ccc(Cl)cc1", "> 5.00"],
  ["COc1ncc(NC(=O)c2csc(-c3ccccc3)n2)cc1S(=O)(=O)Nc1c(C)csc1C", "> 5.00"],
  ["COc1ncc(NC(=O)c2cccc(-c3noc(C)n3)c2)cc1S(=O)(=O)Nc1c(C)cccc1C", "4.70 to 5.00"],
  ["COc1ncc(NC(=O)c2csc(-c3ccccc3)n2)cc1S(=O)(=O)Nc1cc(C(F)(F)F)n[nH]1", "4.00 to 4.70"],
  ["COc1ncc(NC(=O)c2cccc3ncn(C)c23)cc1S(=O)(=O)Nc1c(C)cccc1C", "4.00 to 4.70"],
  ["COc1ncc(NC(=O)c2csc(-c3ccncc3)n2)cc1S(=O)(=O)Nc1c(C)cccc1C", "4.70 to 5.00"]
]}

Prompt: Reported pEC50 for COc1ncc(NC(=O)c2ncc(-c3ccccc3)o2)cc1S(=O)(=O)Nc1cc(-c2ccccc2C)nn1C : what is it?
Response: 4.00 to 4.70

Prompt: Reported pEC50 for COc1ncc(NC(=O)c2coc(-c3ccccc3)n2)cc1S(=O)(=O)Nc1ccc(F)cc1C : what is it?
Response: > 5.00

Prompt: Reported pEC50 for [2H]c1c([2H])c([2H])c(C([2H])([2H])[2H])c(NS(=O)(=O)c2cc(NC(=O)c3csc(-c4ccccc4)n3)cnc2OC)c1[2H] : what is it?
Response: > 5.00

###

# assayedSystem: TRAP1 enzyme (Homo sapiens, UniProt Q12931)
# Construct: 150 nM Trap1 enzyme was incubated with various concentrations of the test compound
# assayMethodText: ADP Glo assay of TRAP1 ATPase activity
# Type: biochemical
# reportedConditions: 1 h; compound concentration 50 μM; read-out: ADP-Glo Percent Activation at 50 μM
# Procedure: Potency of test compounds to modulate the ATPase activity of TRAP1 enzyme was evaluated using ADP Glo assay. The assay is based on quantification of the ADP generated from ATP in the ATPase reaction. […] Second, the Kinase Detection Reagent is added to simultaneously convert ADP to ATP and allow the newly synthesized ATP to be measured using a luciferase/luciferin reaction. […]
reportedMetric: activation at 50 µM

{"columns": ["structureNotation", "activation at 50 µM"],
 "data": [
  ["COc1ncc(NC(=O)c2cc(Cl)n[nH]2)cc1S(=O)(=O)Nc1c(C)cccc1C", "181 to 352%"],
  ["COc1ncc(NC(=O)c2cccc(NC(C)=O)c2)cc1S(=O)(=O)Nc1c(C)cccc1C", "181 to 352%"],
  ["COc1ncc(NC(=O)c2ccc(NC(=O)C3CC3)cc2)cc1S(=O)(=O)Nc1c(C)cccc1C", "120 to 150%"]
]}

Prompt: Under TRAP1 enzyme (Homo sapiens, UniProt Q12931): activation at 50 µM value of COc1ncc(NC(=O)c2nsnc2Cl)cc1S(=O)(=O)Nc1c(C)cccc1C ?
Response: 151 to 180%

Prompt: Under TRAP1 enzyme (Homo sapiens, UniProt Q12931): activation at 50 µM value of COc1ncc(NC(=O)c2cscn2)cc1S(=O)(=O)Nc1c(C)cccc1C ?
Response: 120 to 150%

Prompt: Under TRAP1 enzyme (Homo sapiens, UniProt Q12931): activation at 50 µM value of COc1ncc(NC(=O)c2ccc(N3CCN(C)CC3)c(F)c2)cc1S(=O)(=O)Nc1c(C)cccc1C ?
Response: 181 to 352%

Prompt: Under TRAP1 enzyme (Homo sapiens, UniProt Q12931): activation at 50 µM value of COc1ncc(NC(=O)c2cnn(C3CC3)c2)cc1S(=O)(=O)Nc1c(C)cccc1C ?
Response: 151 to 180%

Prompt: Under TRAP1 enzyme (Homo sapiens, UniProt Q12931): activation at 50 µM value of CCn1ccc(C(=O)Nc2cnc(OC)c(S(=O)(=O)Nc3c(C)cccc3C)c2)n1 ?
Response: 120 to 150%

Prompt: Under TRAP1 enzyme (Homo sapiens, UniProt Q12931): activation at 50 µM value of COc1ncc(NC(=O)c2ccc(NC(C)=O)c(C)c2)cc1S(=O)(=O)Nc1c(C)cccc1C ?
Response: 151 to 180%

Prompt: Under TRAP1 enzyme (Homo sapiens, UniProt Q12931): activation at 50 µM value of COc1ncc(NC(=O)c2ccc3c(c2)NC(=O)CC3)cc1S(=O)(=O)Nc1c(C)cccc1C ?
Response: 120 to 150%

Prompt: Under TRAP1 enzyme (Homo sapiens, UniProt Q12931): activation at 50 µM value of COc1ncc(NC(=O)c2ccc(CN3CCOCC3)cc2)cc1S(=O)(=O)Nc1c(C)cccc1C ?
Response: 181 to 352%

Prompt: Under TRAP1 enzyme (Homo sapiens, UniProt Q12931): activation at 50 µM value of COc1ncc(NC(=O)c2ccn(C)n2)cc1S(=O)(=O)Nc1c(C)cccc1C ?
Response: 120 to 150%

Prompt: Under TRAP1 enzyme (Homo sapiens, UniProt Q12931): activation at 50 µM value of CCN1CCN(Cc2ccccc2C(=O)Nc2cnc(OC)c(S(=O)(=O)Nc3c(C)cccc3C)c2)CC1 ?
Response: 120 to 150%

Prompt: Under TRAP1 enzyme (Homo sapiens, UniProt Q12931): activation at 50 µM value of COc1ncc(NC(=O)c2ccns2)cc1S(=O)(=O)Nc1c(C)cccc1C ?
Response: 120 to 150%

Prompt: Under TRAP1 enzyme (Homo sapiens, UniProt Q12931): activation at 50 µM value of COc1ncc(NC(=O)c2ccc3c(c2)NC(=O)C3)cc1S(=O)(=O)Nc1c(C)cccc1C ?
Response: 181 to 352%

Prompt: Under TRAP1 enzyme (Homo sapiens, UniProt Q12931): activation at 50 µM value of COc1ncc(NC(=O)c2conc2C)cc1S(=O)(=O)Nc1c(C)cccc1C ?
Response: 120 to 150%

Prompt: Under TRAP1 enzyme (Homo sapiens, UniProt Q12931): activation at 50 µM value of COc1ncc(NC(=O)c2cc3n(n2)CCCC3)cc1S(=O)(=O)Nc1c(C)cccc1C ?
Response: 151 to 180%

Prompt: Under TRAP1 enzyme (Homo sapiens, UniProt Q12931): activation at 50 µM value of COc1ncc(NC(=O)c2csc(C(F)(F)F)c2)cc1S(=O)(=O)Nc1c(C)cccc1C ?
Response: 120 to 150%

Prompt: Under TRAP1 enzyme (Homo sapiens, UniProt Q12931): activation at 50 µM value of COc1ncc(NC(=O)c2ncoc2C)cc1S(=O)(=O)Nc1c(C)cccc1C ?
Response: 151 to 180%

###

# assayedSystem: TRAP1 enzyme (Homo sapiens)
# Construct: 150 nM Trap1 enzyme was incubated with various concentrations of the test compound
# assayMethodText: ADP Glo assay of TRAP1 ATPase activity
# Type: biochemical
# reportedConditions: maximal percent activation; read-out: ADP GLO DRC: Mean Emax
Parameter Emax: see the listing below.

{"columns": ["structureNotation", "valueReported"],
 "data": [
  ["COc1ncc(NC(=O)c2csc(-c3ccccc3)n2)cc1S(=O)(=O)Nc1ccc(C)nc1C", "119 to 159%"],
  ["COc1ncc(NC(=O)c2csc3c2CCC3)cc1S(=O)(=O)Nc1c(C)cccc1C", "160 to 199%"],
  ["COc1ncc(NC(=O)c2coc(-c3ccccc3)n2)cc1S(=O)(=O)Nc1nc(C(C)(C)C)ns1", "200 to 300%"]
]}

Prompt: Reported Emax for COc1ncc(NC(=O)c2ncc(-c3ccccc3)o2)cc1S(=O)(=O)Nc1cccc2cnc(C)cc12 : what is it?
Response: 160 to 199%

###

Parameter Emax: see the listing below.
# assayedSystem: TRAP1 enzyme (Homo sapiens, UniProt Q12931)
# Construct: 150 nM Trap1 enzyme was incubated with various concentrations of the test compound
# Sequence (Q12931 60-704): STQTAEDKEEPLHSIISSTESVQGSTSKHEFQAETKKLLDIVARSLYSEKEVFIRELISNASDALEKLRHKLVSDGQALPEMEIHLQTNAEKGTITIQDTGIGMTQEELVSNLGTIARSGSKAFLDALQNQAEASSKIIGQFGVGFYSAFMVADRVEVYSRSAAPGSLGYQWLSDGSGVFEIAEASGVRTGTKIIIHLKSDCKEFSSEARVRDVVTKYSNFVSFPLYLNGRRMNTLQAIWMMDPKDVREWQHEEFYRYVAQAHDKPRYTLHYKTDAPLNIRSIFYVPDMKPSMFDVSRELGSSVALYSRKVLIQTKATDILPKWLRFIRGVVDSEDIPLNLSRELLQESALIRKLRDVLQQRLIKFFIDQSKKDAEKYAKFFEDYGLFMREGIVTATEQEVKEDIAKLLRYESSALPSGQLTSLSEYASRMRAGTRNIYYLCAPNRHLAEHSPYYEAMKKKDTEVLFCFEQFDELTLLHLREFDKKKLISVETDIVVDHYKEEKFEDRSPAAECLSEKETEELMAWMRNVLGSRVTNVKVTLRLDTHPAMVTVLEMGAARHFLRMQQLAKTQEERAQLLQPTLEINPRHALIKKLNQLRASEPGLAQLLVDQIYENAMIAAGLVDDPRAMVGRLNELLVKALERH
# assayMethodText: ADP Glo assay of TRAP1 ATPase activity
# Assay type: biochemical
# reportedConditions: maximal percent activation; read-out: ADP GLO DRC: Mean Emax
# Procedure: Potency of test compounds to modulate the ATPase activity of TRAP1 enzyme was evaluated using ADP Glo assay. The assay is based on quantification of the ADP generated from ATP in the ATPase reaction. […] Second, the Kinase Detection Reagent is added to simultaneously convert ADP to ATP and allow the newly synthesized ATP to be measured using a luciferase/luciferin reaction. […]

Examples from the recorded data:
{"columns": ["molecule", "valueReported"],
 "data": [
  ["COc1ncc(NC(=O)c2csc(-c3ccccc3)n2)cc1S(=O)(=O)Nc1sc2c(c1C#N)CCCC2 [compound 2088]", "200 to 300%"],
  ["COc1ncc(NC(=O)c2ncc(-c3ccccc3)o2)cc1S(=O)(=O)Nc1cccc2cncc(C)c12 [compound 1513]", "160 to 199%"],
  ["COc1ncc(NC(=O)c2csc(-c3ccccc3)n2)cc1S(=O)(=O)Nc1cccn2nc(C)nc12 [compound 1768]", "200 to 300%"],
  ["[2H]c1c([2H])c([2H])c(C([2H])([2H])[2H])c(NS(=O)(=O)c2cc(NC(=O)c3csc(-c4ccccc4)n3)cnc2OC)c1[2H] [compound 2492]", "119 to 159%"],
  ["COc1ncc(NC(=O)c2csc(-c3cc(F)c(F)c(F)c3)n2)cc1S(=O)(=O)Nc1c(C)csc1C [compound 2466]", "160 to 199%"]
]}

Prompt: Reported Emax for COc1ncc(NC(=O)c2cccc(-n3cncn3)c2)cc1S(=O)(=O)Nc1ccc(Cl)cc1 [compound 1204] : what is it?
Response: 160 to 199%

Prompt: Reported Emax for COc1ncc(NC(=O)c2csc(-c3ccc(F)cc3)n2)cc1S(=O)(=O)Nc1c(C)cccc1C [compound 1413] : what is it?
Response: 119 to 159%

Prompt: Reported Emax for COc1ncc(NC(=O)c2csc(-c3ccccc3)n2)cc1S(=O)(=O)N(CC(O)CO)c1ccc(Cl)cc1 (stereo not drawn) [compound 2431] : what is it?
Response: 160 to 199%

Prompt: Reported Emax for COc1ncc(NC(=O)c2noc3c2CCCC3)cc1S(=O)(=O)Nc1ccc(Cl)cc1 [compound 1194] : what is it?
Response: 119 to 159%
